assay: Cellular Toxicity (caspase-3) Jurkat (AID 655); conditions: Jurkat caspase-3 activation, luminescence; at 92.2 µM (top of the series), DMSO = 0%, tamoxifen = 100%;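 note: cells exposed to compound for 16 h at 37 °C before reading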
Results filed as inconclusive are left out.

>  <Compound>
CC(O)COC(C)(C)C (centres undefined)

>  <caspase-3 activation [%]>
0.633

$$$$
>  <Compound>
Cc1ccc(C)c(N)c1

>  <caspase-3 activation [%]>
0.403

$$$$
>  <Compound>
NCCCCCCN

>  <caspase-3 activation [%]>
-1.28

$$$$
>  <Compound>
Nc1cccc(N)c1

>  <caspase-3 activation [%]>
0.427

$$$$
>  <Compound>
CC(=O)C1(C)CC2=C(CCCC2(C)C)CC1C (centres undefined)

>  <caspase-3 activation [%]>
-0.117

$$$$
>  <Compound>
Cc1cscn1

>  <caspase-3 activation [%]>
2.2

$$$$
>  <Compound>
O=C(O)CNC(=O)c1ccc([N+](=O)[O-])cc1

>  <caspase-3 activation [%]>
1.61

$$$$
>  <Compound>
Cc1c(C(=O)O)cccc1[N+](=O)[O-]

>  <caspase-3 activation [%]>
1.11

$$$$
>  <Compound>
O=Cc1c(Cl)cccc1Cl

>  <caspase-3 activation [%]>
3.49

$$$$

###

assay: Cell Viability - LYMP2-014 (AID 983); settings: LYMP2-014 lymphoblastoid cells, viability qHTS; series mostly up to 92.2 µM;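 note: cells exposed to compound for 24 h at 37 °C; nearly all actives have a fitted effect of over 50% in size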
Inconclusive results are not listed. Calls of active or inactive are those of the source. Calls come from the whole dose curve; as a rule, active = well fitted cell-killing curve with a large enough effect; inconclusive = small, poorly fitted or top-dose-only effect; inactive = flat fitted curve, though single readings scatter.
Outcome codes: T = active, F = inactive

>  <Compound>
CCOc1cc(OCC)c(C(C)=O)cc1OCC

>  <Cat>
F

$$$$
>  <Compound>
CCCCCCCCCCCCOCC1CO1 (stereo not given)

>  <Cat>
F

$$$$
>  <Compound>
CCC(C)O (stereo not given)

>  <Cat>
F

$$$$
>  <Compound>
CCNS(=O)(=O)c1ccc(C)cc1

>  <Cat>
F

$$$$
>  <Compound>
CC(C)=CCl

>  <Cat>
F

$$$$
>  <Compound>
c1ccsc1

>  <Cat>
F

$$$$
>  <Compound>
COc1cccc(N)c1

>  <Cat>
F

$$$$
>  <Compound>
C1COC1

>  <Cat>
F

$$$$
>  <Compound>
CC(C)(C)c1ccc(OCC2CO2)cc1 (stereo not given)

>  <Cat>
F

$$$$
>  <Compound>
O=C1OC(=O)c2cc([N+](=O)[O-])ccc21

>  <Cat>
F

$$$$
>  <Compound>
CCOc1cccc(N)c1

>  <Cat>
F

$$$$
>  <Compound>
Cc1cccc(C)c1O

>  <Cat>
F

$$$$
>  <Compound>
Cc1cccc([N+](=O)[O-])c1C(=O)O

>  <Cat>
F

$$$$
>  <Compound>
CC(C)CCOC(=O)/C=C/c1ccccc1

>  <Cat>
F

$$$$
>  <Compound>
C1CCC2OC2C1 (stereo not given)

>  <Cat>
F

$$$$
>  <Compound>
Nc1cc([N+](=O)[O-])ccc1C(=O)O

>  <Cat>
F

$$$$
>  <Compound>
CC1=C(/C=C/C(C)=C/C=C/C(C)=C\C=O)C(C)(C)CCC1

>  <Cat>
T

$$$$
>  <Compound>
CC(C)CO

>  <Cat>
F

$$$$
>  <Compound>
Cc1ccccc1C=O

>  <Cat>
F

$$$$
>  <Compound>
CCCCOCCOCCOCCCC

>  <Cat>
F

$$$$
>  <Compound>
CCC=O

>  <Cat>
F

$$$$
>  <Compound>
O=[N+]([O-])c1ccc(NCCO)c(OCCO)c1

>  <Cat>
F

$$$$
>  <Compound>
CCOc1ccccc1N

>  <Cat>
F

$$$$
>  <Compound>
[O-]/[N+](=N\O)c1ccccc1

>  <Cat>
F

$$$$
>  <Compound>
O=C1NC(=O)c2cc([N+](=O)[O-])ccc21

>  <Cat>
F

$$$$
>  <Compound>
O=CNc1ccccc1

>  <Cat>
F

$$$$
>  <Compound>
NC(=O)/N=N/C(N)=O

>  <Cat>
F

$$$$
>  <Compound>
Clc1ccccn1

>  <Cat>
F

$$$$
>  <Compound>
Cc1cc(C)c(N)cc1C

>  <Cat>
F

$$$$
>  <Compound>
Cc1cccc(C)c1

>  <Cat>
F

$$$$
>  <Compound>
C=Cc1ccccn1

>  <Cat>
F

$$$$
>  <Compound>
CC(N)CN (stereo not given)

>  <Cat>
F

$$$$
>  <Compound>
NC(N)=S

>  <Cat>
F

$$$$
>  <Compound>
C=C(C)C(=O)OCC(C)O (stereo not given)

>  <Cat>
F

$$$$
>  <Compound>
CC(=C/C=C/C(C)=C/C=C/C=C(C)/C=C/C=C(C)/C=C/C(=O)O)/C=C/C(=O)O

>  <Cat>
F

$$$$

meta.source: PubChem BioAssay (NCATS)
